- Assay summary: Apparent permeability of the compound from basolateral to apical side in human Caco2 cells
- Assay type: ADME, cell-based
- Condition summary: Caco-2
Result type: Papp B→A (×10⁻⁶ cm/s)
Record the value in ×10⁻⁶ cm/s, omitting the unit from your answer.

Request: What measured Papp B→A goes with `C[C@H](NC(=O)[C@@H]1CSSC[C@@H](NC(=O)c2nc3ccccc3cc2O)C(=O)NCC(=O)N1C)c1ccccc1` ?
Response: 0.062

// provenance: ChEMBL document CHEMBL3632499
